- Target entity: T1, cynomolgus CD47 on CHO-K1 stable cell line (cynomolgus, UniProt A0A5F8AK49 19-323 (rhesus entry))
- T1 construct: whole, on cells; also called cynomolgus CD47/CHO-K1
- Assay procedure: flow cytometry on cynomolgus CD47 CHO-K1 cells; plateau not reached, not accurate
Recorded endpoint: EC50 (nM)
Numbers only, in nM.

Value lookup for EC50; key = 108VH10.Mq / 108VL10.Me (antibody, V domains shown, 4D5-framework series; constant regions not restated for this series; also called VH10.Mq VL10.Me) VH: EVQLVESGGGLVQPGGSLRLSCAASGFTFSHHWIHWVRQAPGKGLEWVAMIDASDSETRLSDSVKGRFTISADTSKNTAYLQMNSLRAEDTAVYYCSRLGRYYFDYWGQGTLVTVSS VL: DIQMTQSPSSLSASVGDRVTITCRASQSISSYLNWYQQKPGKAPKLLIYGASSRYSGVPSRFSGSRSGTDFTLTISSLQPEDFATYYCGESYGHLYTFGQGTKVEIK
8.4
